Values compiled from ChEMBL document CHEMBL5375957.

EC50 reference
- system_tested: Neuronal acetylcholine receptor subunit alpha-7 (Homo sapiens, UniProt P36544)
- Sequence (P36544 whole entry): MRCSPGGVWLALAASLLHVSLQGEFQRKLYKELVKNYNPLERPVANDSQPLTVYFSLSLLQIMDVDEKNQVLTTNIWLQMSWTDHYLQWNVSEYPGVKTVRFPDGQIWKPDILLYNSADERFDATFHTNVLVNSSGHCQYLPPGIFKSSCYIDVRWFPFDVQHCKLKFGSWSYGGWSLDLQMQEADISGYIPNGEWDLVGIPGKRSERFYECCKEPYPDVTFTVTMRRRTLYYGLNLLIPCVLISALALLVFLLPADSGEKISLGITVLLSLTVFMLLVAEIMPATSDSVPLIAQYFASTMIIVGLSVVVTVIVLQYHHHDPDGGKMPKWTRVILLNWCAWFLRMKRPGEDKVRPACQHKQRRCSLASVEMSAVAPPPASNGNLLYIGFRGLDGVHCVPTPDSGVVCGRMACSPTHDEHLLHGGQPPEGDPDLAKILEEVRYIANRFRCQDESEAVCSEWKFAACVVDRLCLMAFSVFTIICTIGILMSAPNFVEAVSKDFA
- test_details: Positive allosteric modulator activity at human alpha7 nAChR expressed in Flp-In HEK293 cells assessed as increase in calcium influx incubated for 10 mins by fluorescence based analysis
property_label: EC50 (nM)

O=C(NCc1cnc2[nH]c(Cl)cc2c1)N1CC(COc2ccc(C(F)(F)F)cc2)C1 ... 260
Cn1cc(C#N)c2cc(CNC(=O)N3CC(COc4ccc(C(F)(F)F)cc4)C3)ccc21 ... 2200
O=C(NCc1ccc2[nH]ccc2c1)N1CC(COc2ccc(C(F)(F)F)cn2)C1 ... 150
Cn1ccc2cc(CNC(=O)N3CC(COc4ccc(Cl)c(Cl)c4)C3)ccc21 ... 80
Cc1cc2cc(CNC(=O)N3CC(COc4ccc(C(F)(F)F)cc4)C3)ccc2n1C ... 70

* * *

- test_details: Metabolic stability in human liver microsome assessed as intrinsic clearance measured per mg of protein incubated for 40 mins
- Format: ADME
- conditions_used: liver microsomes, read-out: CLH
property_label: microsomal CLint (µL/min/mg)

Cn1cc(Cl)c2cc(CNC(=O)N3CC(COc4ccc(C(F)(F)F)cc4)C3)ccc21 ... 30
O=C(NCc1ccc2[nH]c(C3CC3)cc2c1)N1CC(COc2ccc(C(F)(F)F)cc2)C1 ... 25
Cn1cc(F)c2cc(CNC(=O)N3CC(COc4ccc(C(F)(F)F)nc4)C3)ccc21 ... 107
Cc1cc2cc(CNC(=O)N3CC4(CC(=O)c5ccccc5O4)C3)ccc2[nH]1 ... 11
Cn1ccc2cc(CNC(=O)N3CC(COc4ccc(Cl)c(Cl)c4)C3)ccc21 ... 61
O=C1CC2(CN(C(=O)NCc3ccc4[nH]c(Cl)cc4c3)C2)Oc2ccccc21 ... 22
O=C(NCc1ccc2[nH]ccc2c1)N1CC(COc2ccc(C(F)(F)F)cc2F)C1 ... 24
Cn1cc(Cl)c2cc(CNC(=O)N3CC4(CC(=O)c5ccccc5O4)C3)ccc21 ... 128
Cn1ccc2cc(CNC(=O)N3CC4(CC(=O)c5ccc(F)cc5O4)C3)ccc21 ... 13
COCc1cc2cc(CNC(=O)N3CC(COc4ccc(C(F)(F)F)cc4)C3)cnc2[nH]1 ... 43
O=C(NCc1ccc2[nH]c(C(F)F)cc2c1)N1CC(COc2ccc(C(F)(F)F)cc2)C1 ... 27
Cn1ccc2cc(CNC(=O)N3CC(COc4ccc(C(F)(F)F)nc4)C3)ccc21 ... 27
Cc1cc2cc(CNC(=O)N3CC(COc4ccc(C(F)(F)F)cc4)C3)ccc2[nH]1 ... 29
Cn1ccc2cc(CNC(=O)N3CC(COc4ccc(F)c(F)c4)C3)ccc21 ... 46

* * *

- system_tested: Neuronal acetylcholine receptor subunit alpha-7 (Homo sapiens, UniProt P36544)
- test_details: Positive allosteric modulator activity at human alpha7 nAChR expressed in Flp-In HEK293 cells assessed as increase in calcium influx incubated for 10 mins by fluorescence based analysis
log10 of EC50 reference
property_label: log10 of EC50 (log10 of the value in nM)

Cn1ccc2cc(CNC(=O)N3CC(COc4ccc(C(F)(F)F)cc4)C3)cnc21 ... 2.30
Cc1cn(C)c2ncc(CNC(=O)N3CC(COc4ccc(C(F)(F)F)cc4)C3)cc12 ... 3.08
Cc1cc2cc(CNC(=O)N3CC(COc4ccc(C(F)(F)F)cc4)C3)cnc2n1C ... 2.48
Cn1ccc2cc(CNC(=O)N3CC(COc4ccc(C(F)(F)F)nc4)C3)ccc21 ... 2.43
O=C1CC2(CN(C(=O)NCc3ccc4[nH]c(Cl)cc4c3)C2)Oc2ccccc21 ... 2.36
Cn1ccc2cc(CNC(=O)N3CC(COc4ccc(F)c(C#N)c4)C3)ccc21 ... 2.77
Cn1ccc2cc(CNC(=O)N3CC(COc4ccc(F)cc4C#N)C3)ccc21 ... 3.45
O=C(NCc1ccc2[nH]ccc2c1)N1CC(COc2ccc(C(F)(F)F)nc2)C1 ... 3.04
O=C(NCc1cnc2[nH]ccc2c1)N1CC(COc2ccc(C(F)(F)F)cc2)C1 ... 3.49
Cc1cc2cc(CNC(=O)N3CC(COc4ccc(C(F)(F)F)cc4)C3)ccc2[nH]1 ... 1.18
Cn1ccc2cc(CNC(=O)N3CC(COc4ccc(C(F)(F)F)c(F)c4)C3)ccc21 ... 1.65
Cc1cc2cc(CNC(=O)N3CC4(CC(=O)c5ccc(F)cc5O4)C3)ccc2[nH]1 ... 2.00
O=C(NCc1ccc2[nH]c(C(F)F)cc2c1)N1CC(COc2ccc(C(F)(F)F)cc2)C1 ... 2.34
Cc1cc2cc(CNC(=O)N3CC4(CC(=O)c5ccccc5O4)C3)ccc2[nH]1 ... 2.15
O=C(NCc1ccc2[nH]ccc2c1)N1CC(COc2ccc(C(F)(F)F)cc2F)C1 ... 2.40
O=C(NCc1ccc2[nH]cc(Cl)c2c1)N1CC(COc2ccc(C(F)(F)F)cc2)C1 ... 2.70
Cn1cc(Cl)c2cc(CNC(=O)N3CC(COc4ccc(C(F)(F)F)cc4)C3)cnc21 ... 2.59
Cn1ccc2cc(CNC(=O)N3CC(COc4ccc(F)cc4F)C3)ccc21 ... 2.43
Cn1ccc2cc(CNC(=O)N3CC(COc4ccc(Cl)cc4)C3)cnc21 ... 2.56
O=C(NCc1ccc2[nH]ccc2c1)N1CC(COc2ccc(C(F)(F)F)c(F)c2)C1 ... 1.93

* * *

log10(microsomal CLint) reference
- test_details: Metabolic stability in Wistar rat liver microsome assessed as intrinsic clearance measured per mg of protein incubated for 40 mins
- Format: ADME
- conditions_used: liver microsomes, read-out: CLH
property_label: log10(microsomal CLint) (log10 of the value in µL/min/mg)

Cc1nnc(-c2cc3cc(CNC(=O)N4CC(COc5ccc(C(F)(F)F)cc5)C4)ccc3[nH]2)o1 ... 1.15
O=C(NCc1ccc2[nH]ccc2c1)N1CC(COc2ccc(C(F)(F)F)c(F)c2)C1 ... 1.64
COCc1cc2cc(CNC(=O)N3CC(COc4ccc(C(F)(F)F)cc4)C3)cnc2[nH]1 ... 1.68
Cn1ccc2cc(CNC(=O)N3CC(COc4ccc(C(F)(F)F)cc4)C3)cnc21 ... 1.89
Cc1cc2cc(CNC(=O)N3CC(COc4ccc(C(F)(F)F)cc4)C3)ccc2[nH]1 ... 1.53
Cc1cc2cc(CNC(=O)N3CC4(CC(=O)c5ccccc5O4)C3)ccc2[nH]1 ... 1.72
Cn1ccc2cc(CNC(=O)N3CC4(CC(=O)c5ccccc5O4)C3)ccc21 ... 1.66
O=C1CC2(CN(C(=O)NCc3ccc4[nH]c(Cl)cc4c3)C2)Oc2ccccc21 ... 2.25
O=C(NCc1ccc2[nH]ccc2c1)N1CC(COc2ccc(C(F)(F)F)cc2F)C1 ... 1.59
O=C(NCc1ccc2[nH]cc(Cl)c2c1)N1CC(COc2ccc(C(F)(F)F)cc2)C1 ... 1.36

* * *

- test_details: Kinetic solubility of compound at pH 7.4 incubated for 2 hrs by UV-HPLC analysis
- Assay type: physicochemical
- conditions_used: buffer, read-out: Kinetic_solubility
solubility kinetic at 2 h reference
property_label: solubility kinetic at 2 h (µM)

O=C(NCc1ccc2[nH]ccc2c1)N1CC(COc2ccc(C(F)(F)F)nc2)C1 ... 86.8
Cc1cc2cc(CNC(=O)N3CC4(CC(=O)c5ccc(F)cc5O4)C3)ccc2[nH]1 ... 38.7
Cn1cc(C#N)c2cc(CNC(=O)N3CC(COc4ccc(C(F)(F)F)cc4)C3)cnc21 ... 20.4
CCn1ccc2cc(CNC(=O)N3CC(COc4ccc(C(F)(F)F)cc4)C3)ccc21 ... 0.2
COCCc1cc2cc(CNC(=O)N3CC(COc4ccc(C(F)(F)F)cc4)C3)ccc2n1C ... 0.1
Cn1ccc2cc(CNC(=O)N3CC(COc4ccc(F)cc4C#N)C3)ccc21 ... 31
Cn1c(C2CC2)cc2cc(CNC(=O)N3CC(COc4ccc(C(F)(F)F)cc4)C3)cnc21 ... 0.3
CC(C)n1ccc2cc(CNC(=O)N3CC(COc4ccc(C(F)(F)F)cc4)C3)ccc21 ... 0.9
Cn1cc(F)c2cc(CNC(=O)N3CC(COc4ccc(C(F)(F)F)nc4)C3)ccc21 ... 0.1
COCc1cc2cc(CNC(=O)N3CC(COc4ccc(C(F)(F)F)cc4)C3)cnc2[nH]1 ... 2.9
Cn1ccc2cc(CNC(=O)N3CC(COc4ccc(F)cc4F)C3)ccc21 ... 45.5
Cn1ccc2cc(CNC(=O)N3CC(COc4ccc(Cl)c(Cl)c4)C3)ccc21 ... 0.5
Cn1c(Cl)cc2cc(CNC(=O)N3CC(COc4ccc(C(F)(F)F)cc4)C3)cnc21 ... 0.2
O=C(NCc1ccc2c(ccn2CC(F)(F)F)c1)N1CC(COc2ccc(C(F)(F)F)cc2)C1 ... 0.6
Cn1ccc2cc(CNC(=O)N3CC(COc4ccc(F)c(C#N)c4)C3)ccc21 ... 9.2
Cn1ccc2cc(CNC(=O)N3CC(COc4ccc(C(F)(F)F)cn4)C3)ccc21 ... 0.9
Cn1cc(Cl)c2cc(CNC(=O)N3CC4(CC(=O)c5ccccc5O4)C3)ccc21 ... 9.7
Cn1ccc2cc(CNC(=O)N3CC4(CC(=O)c5ccc(F)cc5O4)C3)ccc21 ... 46
Cc1cn(C)c2ncc(CNC(=O)N3CC(COc4ccc(C(F)(F)F)cc4)C3)cc12 ... 14.2
